# TGT: recombinant human PDE5 (Homo sapiens)
# ASSAY METHOD TEXT: PDE5 inhibition (cGMP-PDE one-step assay)
# DETAILS: In vitro
MEASURED PARAMETER: IC50 (nM)
// return numeric value only (unit: nM, not printed)

Illustrative cases are given below, each with its answer.
Prompt line: Could you tell me which IC50 is on file for CN1CC(=O)N2[C@H](Cc3c([nH]c4ccccc34)[C@]2(C)c2ccc3c(c2)OCO3)C1=O ?
Response line: 260

Prompt line: Data request, read-out IC50, for CN1CC(=O)N2[C@H](c3ccc4c(c3)OCO4)c3[nH]c4ccccc4c3[C@@H](c3ccccc3)[C@@H]2C1=O (racemic)
Response line: 47

Prompt line: Look up IC50 for this compound: C[C@@H]1c2c([nH]c3ccccc23)[C@H](c2ccc3c(c2)OCO3)N2C(=O)CN(C)C(=O)[C@@H]12 (racemic)
Response line: 63

New cases:
Prompt line: Value lookup for IC50; key = CN1CC(=O)N2[C@H](Cc3c([nH]c4ccccc34)[C@@]2(C)c2ccc3c(c2)OCO3)C1=O
Response line: 685

Prompt line: Quick one: IC50 for CN1CC(=O)N2[C@H](c3ccc4c(c3)OCO4)c3[nH]c4ccccc4c3C[C@]2(C)C1=O ?
Response line: 46

Prompt line: Using the record for CN1CC(=O)N2[C@H](Cc3c([nH]c4ccccc34)[C@@]2(O)c2ccc3c(c2)OCO3)C1=O , report its IC50.
Response line: 142

Prompt line: Quick one: IC50 for C[C@@H]1c2c([nH]c3ccccc23)[C@@H](c2ccc3c(c2)OCO3)N2C(=O)CN(C)C(=O)[C@@H]12 (racemic) ?
Response line: 4
